molecular target: recombinant human ACC2 (Homo sapiens (Human), UniProt O00763); experiment: Measurement of inhibitory activity on human ACC2 (MALDI-TOF MS, acetyl CoA to malonyl CoA conversion); type: biochemical; conditions: Table 154
Sequence (O00763 27-2458): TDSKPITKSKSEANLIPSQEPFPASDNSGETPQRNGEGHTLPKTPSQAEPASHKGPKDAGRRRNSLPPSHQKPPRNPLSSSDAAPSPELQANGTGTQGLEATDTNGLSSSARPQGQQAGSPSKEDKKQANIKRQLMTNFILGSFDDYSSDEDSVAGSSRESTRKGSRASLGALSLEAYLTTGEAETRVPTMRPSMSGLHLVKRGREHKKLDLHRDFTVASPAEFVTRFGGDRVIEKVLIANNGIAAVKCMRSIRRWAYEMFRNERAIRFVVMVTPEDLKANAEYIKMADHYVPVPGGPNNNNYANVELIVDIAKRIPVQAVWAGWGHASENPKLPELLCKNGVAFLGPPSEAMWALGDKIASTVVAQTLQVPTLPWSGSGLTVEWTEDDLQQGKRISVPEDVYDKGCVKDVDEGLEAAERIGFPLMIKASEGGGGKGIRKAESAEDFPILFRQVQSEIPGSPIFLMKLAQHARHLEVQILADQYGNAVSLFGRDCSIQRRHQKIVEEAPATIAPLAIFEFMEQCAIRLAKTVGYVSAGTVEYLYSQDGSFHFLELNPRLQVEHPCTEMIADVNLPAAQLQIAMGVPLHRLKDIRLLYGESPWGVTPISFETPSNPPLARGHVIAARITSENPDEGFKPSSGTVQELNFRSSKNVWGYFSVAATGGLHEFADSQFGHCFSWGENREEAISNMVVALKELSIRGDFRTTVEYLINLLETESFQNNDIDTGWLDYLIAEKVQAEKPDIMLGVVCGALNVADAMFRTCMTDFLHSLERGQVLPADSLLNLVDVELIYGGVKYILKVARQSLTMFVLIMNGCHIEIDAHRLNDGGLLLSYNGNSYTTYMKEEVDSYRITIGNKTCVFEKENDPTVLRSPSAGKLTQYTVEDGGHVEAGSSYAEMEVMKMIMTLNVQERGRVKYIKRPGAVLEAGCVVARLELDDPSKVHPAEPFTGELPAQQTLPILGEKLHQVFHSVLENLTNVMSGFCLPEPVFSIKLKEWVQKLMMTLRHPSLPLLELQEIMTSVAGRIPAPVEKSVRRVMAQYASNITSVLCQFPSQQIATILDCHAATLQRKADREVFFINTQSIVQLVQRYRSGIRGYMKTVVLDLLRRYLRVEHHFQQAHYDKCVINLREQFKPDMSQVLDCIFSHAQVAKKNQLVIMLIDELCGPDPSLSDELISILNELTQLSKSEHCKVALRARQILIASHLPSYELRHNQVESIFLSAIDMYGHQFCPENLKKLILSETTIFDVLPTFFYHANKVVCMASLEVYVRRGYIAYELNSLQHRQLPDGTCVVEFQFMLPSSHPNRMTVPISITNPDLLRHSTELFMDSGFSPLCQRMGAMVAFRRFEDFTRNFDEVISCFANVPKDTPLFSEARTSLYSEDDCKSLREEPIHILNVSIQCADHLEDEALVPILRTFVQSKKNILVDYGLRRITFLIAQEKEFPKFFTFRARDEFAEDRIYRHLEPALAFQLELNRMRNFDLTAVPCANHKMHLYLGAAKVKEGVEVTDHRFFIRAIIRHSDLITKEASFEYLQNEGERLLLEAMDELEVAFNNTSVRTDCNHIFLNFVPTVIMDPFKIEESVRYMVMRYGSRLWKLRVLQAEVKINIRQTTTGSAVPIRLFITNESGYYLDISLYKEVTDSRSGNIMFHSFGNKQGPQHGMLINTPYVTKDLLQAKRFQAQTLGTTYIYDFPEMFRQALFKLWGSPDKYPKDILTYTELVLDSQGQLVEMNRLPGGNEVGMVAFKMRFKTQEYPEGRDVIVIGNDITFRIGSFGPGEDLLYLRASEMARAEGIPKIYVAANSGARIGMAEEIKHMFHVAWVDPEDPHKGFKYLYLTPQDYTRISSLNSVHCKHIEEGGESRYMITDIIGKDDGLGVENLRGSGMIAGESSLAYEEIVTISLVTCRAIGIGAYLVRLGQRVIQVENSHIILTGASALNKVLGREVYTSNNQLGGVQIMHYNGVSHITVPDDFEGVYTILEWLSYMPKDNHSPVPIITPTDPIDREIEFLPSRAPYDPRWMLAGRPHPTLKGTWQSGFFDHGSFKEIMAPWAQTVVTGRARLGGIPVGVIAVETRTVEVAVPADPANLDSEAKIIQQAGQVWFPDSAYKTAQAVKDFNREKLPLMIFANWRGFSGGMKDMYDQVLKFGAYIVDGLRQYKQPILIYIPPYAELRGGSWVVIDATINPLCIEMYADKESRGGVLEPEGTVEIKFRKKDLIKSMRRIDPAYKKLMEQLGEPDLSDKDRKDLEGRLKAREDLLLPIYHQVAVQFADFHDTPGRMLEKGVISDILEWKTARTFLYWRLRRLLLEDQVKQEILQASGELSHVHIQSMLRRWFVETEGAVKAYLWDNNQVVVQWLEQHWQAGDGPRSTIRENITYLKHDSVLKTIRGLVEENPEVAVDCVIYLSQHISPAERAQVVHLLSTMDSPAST
Consider the following molecules; for each one, report its IC50.

Report measured IC50; entry is "CC(C)c1nc2ccc(Oc3ccc(OC[C@H](C)NC(=O)CO)nc3)c(Cl)c2s1"
652 nM

Report measured IC50; entry is "CC(=O)N[C@@H](C)COc1ccc(Oc2cc(F)c3nc(C(C)C)sc3c2Cl)cn1"
68 nM

Report measured IC50; entry is "CCOc1nc2ccc(O[C@H]3CC[C@H](OC[C@H](C)NC(C)=O)CC3)c(F)c2s1"
13 nM

Report measured IC50; entry is "CC(=O)N[C@@H](C)CO[C@H]1CC[C@@H](Oc2ccc3nc(C(C)C)sc3c2F)CC1"
756 nM

Report measured IC50; entry is "CC(=O)N[C@@H](C)CO[C@H]1CC[C@H](Oc2ncc(-c3ccccc3)cc2F)CC1"
44 nM

Report measured IC50; entry is "CCOc1nc2ccc(Oc3cnc(OC[C@H](C)NC(C)=O)cn3)c(C#N)c2s1"
25 nM

Report measured IC50; entry is "CCOc1nc2ccc(O[C@H]3C[C@@H](OC[C@H](C)NC(C)=O)C3)c(F)c2s1"
102 nM

Report measured IC50; entry is "CCCc1ccc(Oc2ccc(C(=O)C[C@H](C)NC(C)=O)nc2)c(Cl)c1"
1060 nM

Report measured IC50; entry is "CCOc1nc2ccc(O[C@H]3CC[C@](C)(OC[C@H](C)NC(C)=O)CC3)c(Cl)c2s1"
351 nM

Report measured IC50; entry is "CC(=O)N[C@@H](C)COc1cnc(Oc2ccc3nc(C(C)(F)F)sc3c2F)cn1"
15 nM

Report measured IC50; entry is "CC(=O)N[C@@H](C)CC(=O)c1ccc(Oc2ccc(OCC3CC3)cc2Cl)cc1"
71 nM

Report measured IC50; entry is "CCCc1ccc(Oc2cnc(OC[C@H](C)NC(C)=O)cn2)c(Cl)c1"
502 nM

Report measured IC50; entry is "CCOc1nc2ccc(OC[C@H]3C[C@@H](OC[C@H](C)NC(C)=O)C3)c(Cl)c2s1"
65 nM

Report measured IC50; entry is "CCOc1nc2ccc(O[C@H]3C[C@H](OC[C@H](C)NC(C)=O)C3)c(F)c2s1"
85 nM

Report measured IC50; entry is "CC(=O)N[C@@H](C)CO[C@H]1CC[C@H](Oc2ccc3nc(C(C)C)sc3c2F)CC1"
15 nM

Report measured IC50; entry is "CC(=O)N[C@@H](C)CO[C@H]1CC[C@H](Oc2ccc3nc(C(C)C)sc3c2Cl)CC1"
213 nM

* * *

target: recombinant human ACC2 (Homo sapiens (Human), UniProt O00763); assay: Measurement of inhibitory activity on human ACC2 (MALDI-TOF MS, acetyl CoA to malonyl CoA conversion); format: biochemical; conditions: Tables 155-159
Quantity Kind: pIC50
# log scale: pIC50 equals minus log10 of the concentration in mol/L

Report measured pIC50; entry is CC(=O)N[C@@H](C)CO[C@H]1CC[C@H](Oc2cc3sc(OC(C)CF)nc3cc2Cl)CC1 (stereo partly drawn)
7.02

Report measured pIC50; entry is "CC(=O)N[C@@H](C)CO[C@H]1CC[C@H](Oc2nc3cnc(OC4CC(F)(F)C4)c(Cl)c3n2C)CC1"
8.10

Report measured pIC50; entry is "CC(=O)N[C@@H](C)CO[C@H]1C[C@H](COc2ccc3nc(Oc4ccc(F)nc4)sc3n2)C1"
7.17

Report measured pIC50; entry is "CC(=O)N[C@@H](C)CO[C@H]1C[C@H](COc2ccc3nc(OC4CCSCC4)sc3n2)C1"
8.05

Report measured pIC50; entry is "CC(=O)N[C@@H](C)CO[C@H]1CC[C@H](Oc2ncc(-c3ncc(C)cn3)cc2F)CC1"
7.17

Report measured pIC50; entry is "COC(=O)N[C@@H](C)CO[C@H]1CC[C@H](Oc2nc3c(F)cc(OCC(F)F)c(F)c3n2C)CC1"
7.52

Report measured pIC50; entry is "CC(=O)N[C@@H](C)CO[C@H]1C[C@H](COc2nccc(NC(=O)C3CCCCC3)c2Cl)C1"
7.96

Report measured pIC50; entry is "CC(=O)N[C@@H](C)CO[C@H]1CC[C@H](Oc2ncnc(OCc3ccc(F)cn3)c2Cl)CC1"
7.11

Report measured pIC50; entry is "CC(=O)N[C@@H](C)CO[C@H]1CC[C@H](Oc2nc3c(C#N)cc(OC4CC4)c(F)c3n2C)CC1"
8.05

Report measured pIC50; entry is "CC(=O)N[C@@H](C)CO[C@H]1CC[C@H](Oc2ccc3nc(C4(O)CCCC4)sc3c2F)CC1"
7.36

Report measured pIC50; entry is "C[C@@H](CO[C@H]1CC[C@H](Oc2nc3c(F)cc(OCC(F)F)c(F)c3n2C)CC1)NC(=O)c1cnn(C)c1"
7.01

Report measured pIC50; entry is "CC(=O)N[C@@H](C)CO[C@H]1CC[C@H](Oc2nc3c(C#N)c(F)c(OCC(F)F)c(F)c3n2C)CO1"
7.52

Report measured pIC50; entry is "CC(=O)N[C@@H](C)CO[C@H]1CC[C@H](Oc2ccc3nc(N4CCC(F)(F)CC4)sc3c2F)CC1"
7.39

Report measured pIC50; entry is "CC(=O)N[C@@H](C)CO[C@H]1C[C@H](COc2ccc3nc(OC4CC4)sc3n2)C1"
7.89

Report measured pIC50; entry is "CC(=O)N[C@@H](C)CO[C@H]1CC[C@H](Oc2cc3sc(OC[C@@H](C)F)nc3cn2)CC1"
7.28
